# TEST_METHOD_NOTES: Components of the Cytosolic LPS Sensing Pathway: Gene Identification via Genome-wide siRNA Screen
# SETTINGS: RAW264.7 macrophages, IL-1a HTRF, actives lie on both sides, screened at 100 nM (by protocol), cells primed 5 h with Pam3CSK4 first
The whole screen tested about 53,000 sequences, of which about 3,700 (7%) were called active. The sample as a whole holds a higher share of actives than the screen did.
Record Yes whenever z-score is at 0.5 or higher; record No when lower.

[ask] Quick check, z-score >= 0.5? CCAAUGGUCAGGAGUGUAGTT against Prpsap2
[reply] No

[ask] State whether the measured z-score reaches 0.5, counting equality as reaching it, for GGCAAAAUGAAGAAGCUGATT against Hdac6
[reply] No

[ask] Could you verify whether the entry GCUCUUAAAACCCACCUGATT against Gzf1 shows z-score of no less than 0.5?
[reply] No

[ask] Could you verify whether the entry GCUCCAGCUUGCACUCUUGTT against Trp53i13 shows z-score of no less than 0.5?
[reply] Yes

[ask] Does the sequence CCUGGCCAUGUCGAAAGAUTT against Pla2g6 have recorded z-score that is 0.5 or more?
[reply] Yes

[ask] Evaluate GGGUGACCUUUCCAGAUGATT against Cldn13 : z-score at minimum 0.5?
[reply] No

[ask] Hi team, for GCAAUGGUUCAGUAUGUACTT against Tpgs2 , is the recorded z-score at or above 0.5?
[reply] No

[ask] State whether the measured z-score reaches 0.5, counting equality as reaching it, for CCUCUAGAUAGUGUUAGAGTT against Smarcd1
[reply] No

[ask] Identify whether the reported z-score of the following sequence is 0.5 or greater: CCAGAUCCUAAAGUCUUUATT against Trpd52l3
[reply] Yes

[ask] Is it the case that CCAAGCGAAUGUCAAAAUATT against Fam163a has z-score reaching or exceeding 0.5?
[reply] Yes

[ask] Confirm if z-score reported for the sequence GGAGACAAUGGACAAGAAGTT against Dnal4 is 0.5 or above.
[reply] No

[ask] Determine whether this sequence has z-score no lower than 0.5: GGUGUCUCUGAUGAAUCACTT against Syt15
[reply] Yes

[ask] API: above_or_equal(metric=z-score, cutoff=0.5) for item GGAGGCAGCAGUUAUUGUGTT against Ly6a
[reply] No

[ask] Does the reported z-score for AAUCUUUUCGUGAAGGCACTT against Zfp948 fall at or above the 0.5 mark?
[reply] Yes

[ask] Given GGCAGUUUGUUAAUGAAUGTT against Pcsk1 , state whether its z-score is at least 0.5.
[reply] No

[ask] API: above_or_equal(metric=z-score, cutoff=0.5) for item GCCUUCCUGAAUUUAAAGATT against Myo5b
[reply] Yes

[ask] Is it the case that GCAAUCUCUCCUUUUGUGATT against Olfr1128 has z-score reaching or exceeding 0.5?
[reply] No

[ask] Entry CCUGAACAUAAAGUUUACUTT against Catsper4 : is its z-score no less than 0.5?
[reply] No

[ask] Identify whether the reported z-score of the following sequence is 0.5 or greater: GGAAGUGUGAACUUCAUCATT against Zdhhc6
[reply] Yes

[ask] Check if z-score >= 0.5 (inclusive). Item: GGAUAACACCACCAACUAUTT against Akap8l
[reply] No

[ask] Please check the record GGAACCAUGGACCUUAAUUTT against Rbm4 and state if its z-score is at or above 0.5.
[reply] No

[ask] Please tell me: is the sequence GGAAGAAAGAGAGGUGUGATT against Nxf2 at or over 0.5 in terms of z-score?
[reply] No

[ask] Answer whether z-score of GGGCUAGCAUCACAGUUUUTT against Tigd3 is greater than or equal to 0.5.
[reply] Yes

[ask] Check this sequence for z-score at or above 0.5: GCAGUGGGAAUCGAUAAAGTT against Fgfr2
[reply] No

[ask] Hi, just wondering whether GGAGUUUCUGGAAUGCAGGTT against Sec22c shows z-score of 0.5 or higher.
[reply] Yes
